Target: Tyrosine-protein kinase ZAP-70 (Homo sapiens) (UniProt P43403)
Sequence (P43403 whole entry): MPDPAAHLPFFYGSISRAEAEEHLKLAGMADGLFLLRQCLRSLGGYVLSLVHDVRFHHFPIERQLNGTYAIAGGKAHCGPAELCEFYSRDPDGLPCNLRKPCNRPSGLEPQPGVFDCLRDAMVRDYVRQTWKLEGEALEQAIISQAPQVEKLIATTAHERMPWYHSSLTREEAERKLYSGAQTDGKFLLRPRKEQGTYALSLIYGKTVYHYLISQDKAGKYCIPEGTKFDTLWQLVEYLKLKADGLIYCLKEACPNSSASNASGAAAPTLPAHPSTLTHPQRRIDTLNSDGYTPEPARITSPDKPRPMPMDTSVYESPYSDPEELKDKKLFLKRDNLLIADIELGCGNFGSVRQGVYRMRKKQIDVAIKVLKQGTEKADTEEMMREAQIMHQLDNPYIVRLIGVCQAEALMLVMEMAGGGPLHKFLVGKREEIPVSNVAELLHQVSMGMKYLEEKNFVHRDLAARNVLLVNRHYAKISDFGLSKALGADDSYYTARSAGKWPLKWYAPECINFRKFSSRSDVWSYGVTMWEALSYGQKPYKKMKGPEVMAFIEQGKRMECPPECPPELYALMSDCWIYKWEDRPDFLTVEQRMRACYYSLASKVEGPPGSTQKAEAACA
Settings: at 1 µM
Description: GSK_PKIS: ZAP70 mean inhibition at 1 uM [Nanosyn]
Attribute: inhibition
# number only, unit % dropped from output

Request: Request the reported inhibition associated with CCn1c(-c2nonc2N)nc2cncc(C(=O)N3CC[C@H](N)C3)c21
Response: -1.69

Request: // returns reported inhibition for input COc1ccc(-c2ccncc2)cc1C(N)=O
Response: 1.01

Request: What does the record list as inhibition for Cn1cc(C=C2C(=O)Nc3cccnc32)c2ccccc21 ?
Response: 11.5

Request: If you can, please state the reported inhibition value of Nc1nc(-c2ccccn2)c(-c2ccc3ncccc3n2)s1 .
Response: 0.6

###

Target: Serine/threonine-protein kinase MARK1 (Homo sapiens)
Details: at 1 µM
# if value of inhibition reaches 6%, tag class 1; if it stays below, tag class 0

>  <SMILES REPR>
O=C1NC(=O)C(c2cccc(Cl)c2)=C1Nc1ccc(O)c(Cl)c1

>  <SYSTEM>
Serine/threonine-protein kinase MARK1 (Homo sapiens);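 note: reported values are mean percent inhibition of MARK1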

>  <CLASS ASSIGNMENT>
class 1

$$$$

Request: Reported inhibition at or above 6%? CCn1c(-c2nonc2N)nc2cncc(C(=O)N3CCNCC3)c21
Response: class 0

Request: Could you verify whether the entry CS(=O)(=O)Nc1ccc(N/C=C2\C(=O)Nc3ccccc32)cc1 shows inhibition of no less than 6%?
Response: class 1

Request: Test whether the molecule COc1ccc(COc2ccc(Cc3cnc(N)nc3N)cc2OC)cc1 records inhibition of 6% or higher.
Response: class 0

###

Listing of entries alongside the reported inhibition.
Target: Serine/threonine-protein kinase pim-3 (Homo sapiens) (UniProt Q86V86);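 note: mean inhibition of PIM3 kinase activity, recorded in the GSK_PKIS screening set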
Conditions: at 0.1 µM
# value in %; strip the unit string

>  <SMILES REPR>
O=C1NC(=O)C(N2CCc3ccccc32)=C1c1ccc(Cl)cc1

>  <UNIT ANNOTATION>
%

>  <inhibition>
-1.28

$$$$

Request: Form field: reported inhibition of COc1cc2ncn(-c3cc(O[C@@H](C)c4ccccc4Cl)c(C(N)=O)s3)c2cc1OC
Response: 0.03

Request: Which inhibition value belongs to CS(=O)(=O)CCNCc1nc(-c2ccc3ncnc(Nc4ccc(F)c(Cl)c4)c3c2)cs1 ?
Response: 0.66

Request: What value of inhibition has been reported for the following compound? CS(=O)(=O)Nc1ccc(N/C=C2\C(=O)Nc3ccccc32)cc1
Response: 0.5

Request: Dear colleague, I am looking for the recorded inhibition of the following compound: CS(=O)(=O)CCN(CC#N)Cc1ccc(-c2ccc3ncnc(Nc4ccc(OCc5cccc(F)c5)c(Cl)c4)c3c2)o1
Response: -0.61

###

Biological target: Serine/threonine-protein kinase Nek2 (Homo sapiens);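 note: reported values are mean percent inhibition of NEK2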
Conditions: at 1 µM
Listing of entries alongside the reported inhibition.
Write down the numeric answer in % and omit the unit.

Below: 6 compounds and their reported inhibition.
>  <COMPOUND>
NC(=O)c1ccc(-c2nc(-c3ccccn3)c(-c3ccc4c(c3)OCO4)[nH]2)cc1

>  <inhibition [%]>
2.69

$$$$
>  <COMPOUND>
Fc1cccc(COc2ccc(Nc3ncnc4cc(-c5ccc[nH]5)sc34)cc2Cl)c1

>  <inhibition [%]>
5.24

$$$$
>  <COMPOUND>
COc1ccc2cc(-c3c(-c4ccncc4)nc(-c4ccc([S+](C)[O-])cc4)n3C)ccc2c1 (stereo unspecified)

>  <inhibition [%]>
3.14

$$$$
>  <COMPOUND>
CCn1c(-c2nonc2N)nc2ccncc21

>  <inhibition [%]>
1.09

$$$$
>  <COMPOUND>
NS(=O)(=O)c1cccc(-c2ccc3c(NC(=O)C4CC4)n[nH]c3c2)c1

>  <inhibition [%]>
-0.18

$$$$
>  <COMPOUND>
COc1ccc(-c2nn3ncccc3c2-c2ccnc(Nc3ccc(Cl)c(C(F)(F)F)c3)n2)cc1

>  <inhibition [%]>
1.82

$$$$

Request: Look at this compound and give its reported inhibition. O=C(Nc1n[nH]c2nc(-c3ccco3)c(Br)cc12)C1CC1
Response: 3.85

Request: Entry under review: COc1cc2ncn(-c3cc(O[C@H](C)c4ccccc4Cl)c(C(N)=O)s3)c2cc1OC . Reported inhibition?
Response: 48.8

Request: Sample CS(=O)(=O)CCNCc1ccc(-c2ccc3ncnc(Nc4ccc(OCc5ccccc5)c(Cl)c4)c3c2)o1 — what was its inhibition?
Response: 0.43

Request: If you can, please state the reported inhibition value of Nc1nc(-c2ccc3c(c2)C(=Cc2cc(Br)c(O)c(Br)c2)C(=O)N3)cs1 .
Response: 2.78

Request: Reported inhibition, compound COC(=O)Nc1nc2cc(Oc3cccc(NC(=O)Nc4cc(C(F)(F)F)ccc4F)c3)ccc2[nH]1 : ____
Response: 0.72

###

Target: cGMP-dependent protein kinase 2 (Homo sapiens) (UniProt Q13237)
Sequence (Q13237 whole entry): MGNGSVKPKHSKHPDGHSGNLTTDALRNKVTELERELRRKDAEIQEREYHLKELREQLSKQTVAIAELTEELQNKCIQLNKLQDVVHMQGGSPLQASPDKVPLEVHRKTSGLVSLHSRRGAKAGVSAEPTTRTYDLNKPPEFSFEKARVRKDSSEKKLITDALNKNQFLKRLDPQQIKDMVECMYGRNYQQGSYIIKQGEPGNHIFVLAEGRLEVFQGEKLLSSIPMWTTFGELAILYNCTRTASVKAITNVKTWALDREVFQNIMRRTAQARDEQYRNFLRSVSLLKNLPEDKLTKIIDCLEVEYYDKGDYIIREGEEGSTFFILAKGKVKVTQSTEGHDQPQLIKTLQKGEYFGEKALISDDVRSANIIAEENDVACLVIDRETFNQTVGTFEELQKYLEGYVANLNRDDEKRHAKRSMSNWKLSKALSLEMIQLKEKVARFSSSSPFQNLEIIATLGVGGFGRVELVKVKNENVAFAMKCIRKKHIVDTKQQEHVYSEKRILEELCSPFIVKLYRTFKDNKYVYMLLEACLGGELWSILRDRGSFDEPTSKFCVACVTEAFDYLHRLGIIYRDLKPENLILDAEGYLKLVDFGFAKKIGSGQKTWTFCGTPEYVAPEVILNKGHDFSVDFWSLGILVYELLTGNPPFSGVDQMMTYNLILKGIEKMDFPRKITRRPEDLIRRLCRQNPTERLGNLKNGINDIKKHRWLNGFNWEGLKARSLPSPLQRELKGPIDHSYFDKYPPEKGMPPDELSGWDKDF
Conditions: at 0.1 µM
Reported inhibition values follow for various molecules
Numbers only; they are read as %.

>  <SMILES REPR>
COc1ccc(COc2ccc(Cc3cnc(N)nc3N)cc2OC)cc1

>  <inhibition (%)>
2.89

$$$$

Request: Report inhibition for CCn1c(-c2nonc2N)nc2c(C#CC(C)(C)O)nc(OC[C@@H](N)c3ccccc3)cc21 tested on cGMP-dependent protein kinase 2 (Homo sapiens) (UniProt Q13237).
Response: 35.9

Request: Identify the measured inhibition of NS(=O)(=O)c1cccc(-c2ccc3c(NC(=O)C4CC4)n[nH]c3c2)c1 for cGMP-dependent protein kinase 2 (Homo sapiens) (UniProt Q13237).
Response: 0.6

Request: Form: Entry = Nc1nc(-c2ccccn2)c(-c2ccc3ncccc3n2)s1 | System = cGMP-dependent protein kinase 2 (Homo sapiens) (UniProt Q13237) | inhibition = ____;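 note: reported figure is a mean inhibition value against PRKG2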
Response: 1.67

Request: Give cGMP-dependent protein kinase 2 (Homo sapiens) (UniProt Q13237) inhibition for COc1cccc(-n2ncc3c(N/N=C/c4cccc(F)c4)ncnc32)c1
Response: 2.4

Request: For cGMP-dependent protein kinase 2 (Homo sapiens) (UniProt Q13237), provide inhibition of CCCN1CCC=C(c2ccc(Nc3nc(Nc4ccccc4C(N)=O)c4cc[nH]c4n3)c(C)c2)C1 please.
Response: 5.72

###

Target: Hepatocyte growth factor receptor (Homo sapiens) (UniProt P08581)
Sequence (P08581 whole entry): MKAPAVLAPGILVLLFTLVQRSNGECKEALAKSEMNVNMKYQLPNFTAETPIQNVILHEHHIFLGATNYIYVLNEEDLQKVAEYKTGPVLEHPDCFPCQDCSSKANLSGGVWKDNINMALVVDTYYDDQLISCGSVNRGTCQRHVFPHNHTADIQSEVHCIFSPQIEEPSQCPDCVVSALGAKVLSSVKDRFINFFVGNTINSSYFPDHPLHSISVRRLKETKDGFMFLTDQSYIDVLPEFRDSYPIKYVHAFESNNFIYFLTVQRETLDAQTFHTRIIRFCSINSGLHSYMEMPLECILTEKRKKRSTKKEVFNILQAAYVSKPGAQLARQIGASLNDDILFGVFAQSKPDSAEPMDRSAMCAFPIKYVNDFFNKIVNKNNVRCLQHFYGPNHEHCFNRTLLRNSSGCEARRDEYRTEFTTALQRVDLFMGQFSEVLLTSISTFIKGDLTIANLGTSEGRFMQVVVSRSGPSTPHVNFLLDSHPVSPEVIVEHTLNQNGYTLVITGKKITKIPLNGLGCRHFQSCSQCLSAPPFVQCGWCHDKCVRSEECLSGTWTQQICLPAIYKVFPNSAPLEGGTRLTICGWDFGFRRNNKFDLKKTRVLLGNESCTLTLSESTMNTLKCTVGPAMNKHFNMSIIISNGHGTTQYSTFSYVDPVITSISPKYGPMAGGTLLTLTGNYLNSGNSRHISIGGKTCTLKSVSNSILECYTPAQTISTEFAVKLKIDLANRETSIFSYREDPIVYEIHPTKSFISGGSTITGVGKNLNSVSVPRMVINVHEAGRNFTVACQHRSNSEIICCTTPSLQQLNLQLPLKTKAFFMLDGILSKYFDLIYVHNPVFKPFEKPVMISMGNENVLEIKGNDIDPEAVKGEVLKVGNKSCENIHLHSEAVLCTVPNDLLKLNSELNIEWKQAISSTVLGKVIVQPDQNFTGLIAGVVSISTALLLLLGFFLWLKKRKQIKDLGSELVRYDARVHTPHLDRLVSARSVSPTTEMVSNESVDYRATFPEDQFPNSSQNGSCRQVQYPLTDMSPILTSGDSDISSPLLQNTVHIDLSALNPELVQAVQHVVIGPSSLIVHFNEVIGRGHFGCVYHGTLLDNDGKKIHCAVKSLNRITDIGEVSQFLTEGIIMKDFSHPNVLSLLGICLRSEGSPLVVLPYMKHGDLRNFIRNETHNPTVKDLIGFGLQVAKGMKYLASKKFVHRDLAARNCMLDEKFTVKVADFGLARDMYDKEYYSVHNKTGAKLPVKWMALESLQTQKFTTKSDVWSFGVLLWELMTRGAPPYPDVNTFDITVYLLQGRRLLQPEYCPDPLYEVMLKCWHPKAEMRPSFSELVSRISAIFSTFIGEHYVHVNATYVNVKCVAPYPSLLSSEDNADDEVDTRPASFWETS
Settings: at 0.1 µM
# inhibition listing for each entry below
I only need the number, in %, no unit after it.

Some molecules with recorded inhibition:
>  <MOLECULE>
Fc1cccc(COc2ccc(Nc3ncnc4cc(-c5ccc[nH]5)sc34)cc2Cl)c1

>  <SYSTEM>
Hepatocyte growth factor receptor (Homo sapiens) (UniProt P08581)

>  <inhibition [%]>
-0.09

$$$$
>  <MOLECULE>
COc1cc(C)c(NC(=O)CN(C)C)cc1Nc1nc(Nc2cccc(F)c2C(N)=O)c2cc[nH]c2n1

>  <SYSTEM>
Hepatocyte growth factor receptor (Homo sapiens) (UniProt P08581)

>  <inhibition [%]>
3.32

$$$$

Request: Write down the reported inhibition of Cc1nn(C)c2cc(N(C)c3ccnc(Nc4cccc(S(N)(=O)=O)c4)n3)ccc12 , test system: Hepatocyte growth factor receptor (Homo sapiens) (UniProt P08581).
Response: 7.18

Request: Record COc1cc2ncn(-c3cc(OCc4ccccc4C(F)(F)F)c(C(N)=O)s3)c2cc1OC : what is its inhibition with Hepatocyte growth factor receptor (Homo sapiens) (UniProt P08581)?
Response: 4.37

Request: Can you look up inhibition on Hepatocyte growth factor receptor (Homo sapiens) (UniProt P08581) for CS(=O)(=O)CCNCc1ccc(-c2ccc3ncnc(Nc4ccc(OCc5ccccc5)c(Cl)c4)c3c2)o1 ?
Response: 5.04

Request: Given the entry CN1CCC(C(=O)Nc2n[nH]c3nnc(-c4ccccc4)cc23)CC1 , what inhibition was observed with Hepatocyte growth factor receptor (Homo sapiens) (UniProt P08581)?
Response: 1.78

Request: Observed inhibition on Hepatocyte growth factor receptor (Homo sapiens) (UniProt P08581) for CC1=C(C(=O)Nc2ccc3[nH]ncc3c2)C(c2ccc3ccccc3c2)CC(=O)N1 (configuration not stated) , please.
Response: 8.81

Request: Query inhibition on Hepatocyte growth factor receptor (Homo sapiens) (UniProt P08581) for O=C(Nc1n[nH]c2nc(-c3ccco3)c(Br)cc12)C1CC1
Response: 1.38

Request: Requested read-out inhibition, target or system Hepatocyte growth factor receptor (Homo sapiens) (UniProt P08581), entry CS(=O)(=O)Nc1ccc(N/C=C2\C(=O)Nc3ccccc32)cc1
Response: -4.32

Request: // fetch Hepatocyte growth factor receptor (Homo sapiens) (UniProt P08581) inhibition for CC1=C(C(=O)Nc2ccc3[nH]ncc3c2)C(c2ccc(F)cc2)NC(=O)N1 (configuration not stated)
Response: 3

Request: Under Hepatocyte growth factor receptor (Homo sapiens) (UniProt P08581): inhibition value of O=C1NC(=O)C(c2cccc(Cl)c2)=C1Nc1ccc(O)c(Cl)c1 ?
Response: 0.77

Request: API: value(readout=inhibition, system=Hepatocyte growth factor receptor (Homo sapiens) (UniProt P08581)) for record COc1ccc(-c2nn3ncccc3c2-c2ccnc(Nc3ccc(Cl)c(C(F)(F)F)c3)n2)cc1
Response: 7.55

Request: Reported inhibition for Hepatocyte growth factor receptor (Homo sapiens) (UniProt P08581), given COC(=O)Nc1nc2cc(Oc3ccc(NC(=O)Nc4cccc(C(=O)O)c4)cc3)ccc2[nH]1 ?
Response: -0.09

Request: Request - read-out inhibition | tested on Hepatocyte growth factor receptor (Homo sapiens) (UniProt P08581) | molecule COc1cc2c(cc1Nc1nc(N3CCc4ccccc43)c3cc[nH]c3n1)N(C(=O)CN(C)C)CC2;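 note: reported values are means of MET inhibition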
Response: 2.24

Request: Hi! What's the reported inhibition for N#Cc1c(NC(=O)c2cccc3ccccc23)sc2c1CCCC2 on Hepatocyte growth factor receptor (Homo sapiens) (UniProt P08581)?
Response: 3.61

Reference for the values: ChEMBL document CHEMBL1961873
